Can you tell me pKi for the items I'm about to list?
target: Substance-K receptor (Cavia porcellus, UniProt Q64077); assay: […] activity at NK2 receptor in guinea pig smooth muscle
Sequence (Q64077 whole entry): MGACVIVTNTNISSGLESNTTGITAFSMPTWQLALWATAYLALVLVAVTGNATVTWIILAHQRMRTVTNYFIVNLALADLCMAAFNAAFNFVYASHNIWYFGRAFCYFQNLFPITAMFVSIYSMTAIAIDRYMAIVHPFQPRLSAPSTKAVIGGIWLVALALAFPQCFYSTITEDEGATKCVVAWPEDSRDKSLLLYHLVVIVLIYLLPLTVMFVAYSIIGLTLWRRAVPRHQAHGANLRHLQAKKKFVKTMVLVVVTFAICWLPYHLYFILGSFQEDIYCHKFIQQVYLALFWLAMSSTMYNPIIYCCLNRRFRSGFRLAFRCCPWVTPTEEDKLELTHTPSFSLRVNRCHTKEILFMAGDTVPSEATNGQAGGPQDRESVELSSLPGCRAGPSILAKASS
The value called pKi is obtained by taking minus log10 of the concentration in mol/L.

Exercise: Look up pKi: CN1CCN(CCCNC(=O)[C@@H](Cc2ccccc2)NC(=O)C2(NC(=O)c3cc4ccccc4s3)CCc3ccccc32)CC1 (stereo in doubt; 48b)
Key: 7.60

Exercise: Look up pKi: CN1CCN(CCCNC(=O)[C@@H](Cc2ccccc2)NC(=O)C2(NC(=O)c3cc4ccccc4s3)Cc3ccccc3C2)CC1
Key: 6.90

Exercise: Look up pKi: CCCCN(CCCC)CCCNC(=O)[C@@H](Cc1ccccc1)NC(=O)C1(NC(=O)c2cc3ccccc3s2)CCCCC1
Key: 6.70

Exercise: Look up pKi: CCCCN(CCCC)CCCNC(=O)[C@@H](Cc1ccccc1)NC(=O)C1(NC(=O)c2cc3ccccc3s2)Cc2ccccc2C1
Key: 6.70

Exercise: Look up pKi: O=C(NC1(C(=O)N[C@H](Cc2ccccc2)C(=O)NCCCN2CCOCC2)CCc2ccccc21)c1cc2ccccc2s1 (stereo in doubt; 47b)
Key: 7.70

Exercise: Look up pKi: O=C(NC1(C(=O)N[C@H](Cc2ccccc2)C(=O)NCCCN2CCOCC2)CCCCC1)c1cc2ccccc2s1
Key: 7.00

---

Molecular target: Substance-K receptor (Homo sapiens)
Sequence (P21452 whole entry): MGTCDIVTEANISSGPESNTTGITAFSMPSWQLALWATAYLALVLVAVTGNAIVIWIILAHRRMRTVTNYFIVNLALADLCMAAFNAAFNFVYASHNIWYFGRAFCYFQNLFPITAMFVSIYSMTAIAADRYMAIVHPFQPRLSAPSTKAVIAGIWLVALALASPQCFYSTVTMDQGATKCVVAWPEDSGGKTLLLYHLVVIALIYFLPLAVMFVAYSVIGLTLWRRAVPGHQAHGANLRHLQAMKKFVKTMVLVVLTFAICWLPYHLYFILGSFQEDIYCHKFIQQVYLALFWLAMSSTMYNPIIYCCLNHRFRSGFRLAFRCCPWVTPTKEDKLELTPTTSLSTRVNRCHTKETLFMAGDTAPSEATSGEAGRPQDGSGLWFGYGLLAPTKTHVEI
result-type: Ki

Exercise: Look up Ki: CCCCN(CCCC)CCCNC(=O)[C@@H](Cc1ccccc1)NC(=O)C1(NC(=O)c2cc3ccccc3s2)Cc2ccccc2C1
Key: 1.58 nM

Exercise: Look up Ki: CCN(CC)CCNC(=O)C(Cc1ccccc1)NC(=O)C1(NC(=O)c2cc3ccccc3s2)CCCCC1 (stereo not drawn)
Key: 100 nM

Exercise: Look up Ki: CCC(CC)(NC(=O)c1cc2ccccc2s1)C(=O)N[C@@H](Cc1ccccc1)C(=O)NCCOCCOCCN
Key: > 1000 nM

Exercise: Look up Ki: CN1CCN(CCCNC(=O)[C@H](Cc2ccccc2)NC(=O)C2(NC(=O)c3cc4ccccc4s3)CCCCC2)CC1
Key: 100 nM

Exercise: Look up Ki: O=C(NC1(C(=O)NC(Cc2ccccc2)C(=O)NCCN2CCOCC2)CCCCC1)c1cc2ccccc2s1 (stereo not drawn)
Key: 100 nM

Exercise: Look up Ki: CCCCN(CCCC)CCCNC(=O)[C@H](Cc1ccccc1)NC(=O)C1(NC(=O)c2cc3ccccc3s2)CCCCC1
Key: 6.31 nM

Exercise: Look up Ki: CC(C)N(CCNC(=O)C(Cc1ccccc1)NC(=O)C1(NC(=O)c2cc3ccccc3s2)CCCCC1)C(C)C (stereo not drawn)
Key: 31.6 nM

Exercise: Look up Ki: CCN(CC)CCCNC(=O)C(Cc1ccccc1)NC(=O)C1(NC(=O)c2cc3ccccc3s2)CCCCC1 (stereo not drawn)
Key: 100 nM

---

Target chain: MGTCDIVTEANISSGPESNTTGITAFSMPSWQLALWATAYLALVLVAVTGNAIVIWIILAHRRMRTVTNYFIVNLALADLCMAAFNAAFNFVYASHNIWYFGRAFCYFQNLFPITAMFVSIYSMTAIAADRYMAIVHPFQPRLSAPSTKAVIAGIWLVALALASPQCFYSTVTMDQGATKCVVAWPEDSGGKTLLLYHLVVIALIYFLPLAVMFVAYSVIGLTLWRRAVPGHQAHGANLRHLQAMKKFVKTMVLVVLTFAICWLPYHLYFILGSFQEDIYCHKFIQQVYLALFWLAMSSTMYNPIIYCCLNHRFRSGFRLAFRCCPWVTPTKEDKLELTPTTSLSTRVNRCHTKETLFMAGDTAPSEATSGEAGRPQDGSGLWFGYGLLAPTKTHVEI
result-type: pKi
The value called pKi is obtained by taking minus log10 of the concentration in mol/L.

Exercise: Look up pKi: NCCOCCOCCNC(=O)[C@H](Cc1ccccc1)NC(=O)C1(NC(=O)c2cc3ccccc3s2)CCc2ccccc2C1 (stereo partly drawn)
Key: 6.40

Exercise: Look up pKi: NCCCCCCCCNC(=O)C(Cc1ccccc1)NC(=O)C1(NC(=O)c2cc3ccccc3s2)CCCCC1 (stereo not drawn)
Key: 6.90

Exercise: Look up pKi: NCCOCCOCCNC(=O)[C@H](Cc1ccccc1)NC(=O)C1(NC(=O)c2cc3ccccc3s2)CCCCC1
Key: 7.90

---

assay: Solubility at pH 7.4; assay type: physicochemical; conditions: buffer
result-type: solubility (µg/mL)
Answer in µg/mL, number only, no unit symbol.

Exercise: Look up solubility: O=C(NC1(C(=O)N[C@H](Cc2ccccc2)C(=O)NCCCN2CCOCC2)CCCC1)c1cc2ccccc2s1
Key: 100

---

target: Substance-K receptor (Homo sapiens, UniProt P21452)
Rule: Ki below 4 nM gives class 1, anything at or above gives class 0.

Exercise: For this compound, is Ki lower than 4 nM? CN(C)CCCNC(=O)[C@H](Cc1ccccc1)NC(=O)C1(NC(=O)c2cc3ccccc3s2)CCCCC1
Key: class 0

Exercise: For this compound, is Ki lower than 4 nM? O=C(NC1(C(=O)N[C@@H](Cc2ccccc2)C(=O)NC2CC2)CCCCC1)c1cc2ccccc2s1
Key: class 0

Exercise: For this compound, is Ki lower than 4 nM? NCCOCCOCCNC(=O)[C@H](Cc1ccccc1)NC(=O)CNC(=O)c1cc2ccccc2s1
Key: class 0

Exercise: For this compound, is Ki lower than 4 nM? NCCCCCCCNC(=O)C(Cc1ccccc1)NC(=O)C1(NC(=O)c2cc3ccccc3s2)CCCCC1 (stereo not drawn)
Key: class 0

Exercise: For this compound, is Ki lower than 4 nM? CN1CCN(CCCNC(=O)[C@@H](Cc2ccccc2)NC(=O)C2(NC(=O)c3cc4ccccc4s3)CCCC2)CC1
Key: class 1

Exercise: For this compound, is Ki lower than 4 nM? CN1CCN(CCCNC(=O)[C@@H](Cc2ccccc2)NC(=O)C2(NC(=O)c3cc4ccccc4s3)Cc3ccccc3C2)CC1
Key: class 1

Exercise: For this compound, is Ki lower than 4 nM? CN1CCN(CCCNC(=O)[C@@H](Cc2ccccc2)NC(=O)C2(NC(=O)c3cc4ccccc4s3)CCc3ccccc32)CC1 (stereo in doubt; 48b)
Key: class 1
